Listing: pIC50 of selected molecules
# experimental-protocol: Cytotoxicity against human HBL100 cells by MTT assay
# Assay type: cell-based
# reported-conditions: HBL-100
The meaning of pIC50 here: minus log10 of the concentration in molar units.

Worked set:
Quick check: pIC50 of "O=C(CCl)N1c2ccccc2Oc2ccccc21" ?
4.54

// next record "c1ccc2c(-n3ccnc3)c3ccccc3cc2c1"
3.66

Now turn to the next molecule.
Quick check: pIC50 of "O=C(Cn1ccnc1)N1c2ccccc2Oc2ccccc21" ?
4.64
